System: marmosets
Assay: Reduction in non-HDL cholesterol level in marmosets at 30 mg/kg/day, po for 7 days
Type: functional, Callitrichinae sp.
Parameters: scale not given: the % may be the effect or the level left
quantity-kind: Activity (%)
Express the result in % but write the number alone.

Worked examples follow.
In [3]: df
Out[3]:
                                   compound  test_system  units_of_measure  reported_result
0  COc1cccc([C@H]2O[C@H](CC(=O)O)c3nnc(C(F)(F)F)n3-c3ccc(Cl)cc32)c1OC    marmosets                 %               44
1  COc1cccc([C@H]2O[C@H](CC(=O)O)c3nnc(C(F)(F)F)n3-c3ccc(Cl)cc32)c1Cl    marmosets                 %               53

Ask: Fill in the recorded Activity for this compound, with marmosets as test system: COc1cccc([C@H]2O[C@H](CC(=O)N3CCC(CC(=O)O)CC3)C(=O)N(CC(C)(C)COC(C)=O)c3ccc(Cl)cc32)c1OC [LAPAQUISTAT ACETATE]
Result: 19

Ask: Fill in the recorded Activity for this compound, with marmosets as test system: `COc1cccc([C@H]2O[C@H](CC(=O)O)c3nnc(C(F)(F)F)n3-c3ccc(Cl)cc32)c1C`
Result: 42

---

Test system: Rattus norvegicus
Test: Drug uptake in rats liver assessed per gram of tissue at 3 mg/kg, po administered as single dose measured at 1 hr
quantity-kind: concentration at 1 h
Please make sure the unit comes right after the number.

Ask: Fill in the recorded concentration at 1 h for this compound, with Rattus norvegicus as test system: `COc1cccc([C@H]2O[C@H](CC(=O)O)c3nnc(C(F)(F)F)n3-c3ccc(Cl)cc32)c1OC`
Result: 1040 ng/g

---

Tested on: Rattus norvegicus
Assay: Inhibition of cholesterol synthesis in Wistar rat at 1 mg/kg, po administered as single dose prior to [14C]mevalonolactone injection measured after 7 hrs by liquid scintillation counting
Type: functional
The entries below come with measured inhibition in vivo at 1 mg/kg values attached.
Express the result in % but write the number alone.

                              smiles_record  reported_result
0  COc1cccc([C@H]2O[C@H](CC(=O)O)c3nnc(C(F)(F)F)n3-c3ccc(Cl)cc32)c1OC(F)(F)F               48

Ask: Recorded inhibition in vivo at 1 mg/kg for `COc1cccc([C@H]2O[C@H](CC(=O)O)c3nnc(C(F)(F)F)n3-c3ccc(Cl)cc32)c1OC` , please?
Result: 45

Ask: Recorded inhibition in vivo at 1 mg/kg for `CCc1c(OC)cccc1[C@H]1O[C@H](CC(=O)O)c2nnc(C(F)(F)F)n2-c2ccc(Cl)cc21` , please?
Result: 21

Ask: Recorded inhibition in vivo at 1 mg/kg for `COc1cccc([C@H]2O[C@H](CC(=O)O)c3nnc(C(F)(F)F)n3-c3ccc(Cl)cc32)c1C` , please?
Result: 45

Ask: Recorded inhibition in vivo at 1 mg/kg for `COc1cccc([C@H]2O[C@H](CC(=O)O)c3nnc(C(F)(F)F)n3-c3ccc(Cl)cc32)c1Cl` , please?
Result: 55

---

The entries below come with measured inhibition in vivo at 1 mg/kg values attached.
System: Rattus norvegicus
Assay: Inhibition of cholesterol synthesis in Wistar rat at 1 mg/kg, po administered as single dose prior to [14C]mevalonolactone injection measured after 4 hrs by liquid scintillation counting
Format: functional
Please make sure the unit comes right after the number.

Worked examples follow.
>>> df
                              smiles_record  reported_result
0  CCc1c(OC)cccc1[C@H]1O[C@H](CC(=O)O)c2nnc(C(F)(F)F)n2-c2ccc(Cl)cc21              57%
1  COc1cccc([C@H]2O[C@H](CC(=O)O)c3nnc(C(F)(F)F)n3-c3ccc(Cl)cc32)c1OC              78%
2  COc1cccc([C@H]2O[C@H](CC(=O)O)c3nnc(C(F)(F)F)n3-c3ccc(Cl)cc32)c1OC(F)(F)F              67%

Ask: Recorded inhibition in vivo at 1 mg/kg for `COc1cccc([C@H]2O[C@H](CC(=O)O)c3nnc(C(F)(F)F)n3-c3ccc(Cl)cc32)c1C` , please?
Result: 69%

Ask: Recorded inhibition in vivo at 1 mg/kg for `COc1cccc([C@H]2O[C@H](CC(=O)O)c3nnc(C(F)(F)F)n3-c3ccc(Cl)cc32)c1Cl` , please?
Result: 77%

---

Molecular target: Squalene synthase (Rattus norvegicus, UniProt Q02769)
Sequence (Q02769 whole entry): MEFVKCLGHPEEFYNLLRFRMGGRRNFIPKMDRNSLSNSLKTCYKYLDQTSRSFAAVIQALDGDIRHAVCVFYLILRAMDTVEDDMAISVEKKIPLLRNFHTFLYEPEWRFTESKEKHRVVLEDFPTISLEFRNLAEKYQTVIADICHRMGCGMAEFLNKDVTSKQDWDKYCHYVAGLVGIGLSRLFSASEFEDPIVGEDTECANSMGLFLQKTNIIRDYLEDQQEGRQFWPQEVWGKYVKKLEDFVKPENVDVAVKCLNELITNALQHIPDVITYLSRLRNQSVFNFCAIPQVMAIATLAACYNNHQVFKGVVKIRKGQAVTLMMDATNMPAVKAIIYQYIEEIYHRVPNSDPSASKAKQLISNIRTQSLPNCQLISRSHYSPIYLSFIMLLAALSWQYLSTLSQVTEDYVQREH
Note to self: IC50 under 2 nM means Condition met, ties and anything higher get Condition not met.

Ask: Input COc1cccc([C@H]2O[C@H](CCn3cc(C(=O)O)cn3)c3nnc(C)n3-c3ccc(Cl)cc32)c1OC (relative stereo) ; condition: IC50 strictly below 2 nM. Does it hold?
Result: Condition not met

---

Test system: Rattus norvegicus
Assay: Partition co-efficient, Kp in rats liver assessed per gram of tissue at 3 mg/kg, po administered as single dose measured at 1 hr
quantity-kind: Kp at 1 h

Ask: Fill in the recorded Kp at 1 h for this molecule, with Rattus norvegicus as test system: `COc1cccc([C@H]2O[C@H](CC(=O)O)c3nnc(C(F)(F)F)n3-c3ccc(Cl)cc32)c1OC`
Result: 66

---

Target: Squalene synthase (Rattus norvegicus, UniProt Q02769)
quantity-kind: IC50 (nM)
Express the result in nM but write the number alone.

In [3]: df
Out[3]:
                                   compound  units_of_measure  reported_result
0  COc1cccc([C@H]2O[C@H](CC(=O)O)c3nnc(C(F)(F)F)n3-c3ccc(Cl)cc32)c1OC                nM              1.6

Ask: Recorded IC50 for `COc1cccc([C@H]2O[C@H](CC(=O)O)c3nnc(C(F)(F)F)n3-c3ccc(Cl)cc32)c1C` , please?
Result: 0.85

Ask: Recorded IC50 for `CCc1c(OC)cccc1[C@H]1O[C@H](CC(=O)O)c2nnc(C(F)(F)F)n2-c2ccc(Cl)cc21` , please?
Result: 0.36

Ask: Recorded IC50 for COc1cccc([C@H]2O[C@H](CCn3cc(C(=O)O)cn3)c3nnc(CF)n3-c3ccc(Cl)cc32)c1OC (relative stereo) , please?
Result: 6
